Cited source for all entries: patent US20240417393A1

target: human GLP-1R receptor (Homo sapiens, UniProt P43220, L260F); test: CHOK1 GLP-1R cAMP Assay (HTRF); settings: CHO-K1 cells stably expressing human GLP-1R (Leu260Phe variant), 20 min at rt
Sequence (P43220 24-463 L260F): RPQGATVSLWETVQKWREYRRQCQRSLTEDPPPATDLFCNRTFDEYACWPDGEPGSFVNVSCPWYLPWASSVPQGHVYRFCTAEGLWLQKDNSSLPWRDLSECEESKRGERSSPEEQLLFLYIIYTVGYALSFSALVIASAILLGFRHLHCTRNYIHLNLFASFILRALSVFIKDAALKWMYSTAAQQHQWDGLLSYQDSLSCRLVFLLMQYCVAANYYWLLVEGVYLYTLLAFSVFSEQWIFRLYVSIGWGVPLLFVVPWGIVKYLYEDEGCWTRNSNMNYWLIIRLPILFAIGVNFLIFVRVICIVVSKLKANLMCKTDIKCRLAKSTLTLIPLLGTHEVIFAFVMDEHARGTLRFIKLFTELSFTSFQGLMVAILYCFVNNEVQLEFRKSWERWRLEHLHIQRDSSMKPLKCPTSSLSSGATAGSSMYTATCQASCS
Entries and their measured pEC50 follow.
Reminder that pEC50 means the negative base-10 logarithm of the concentration expressed in mol/L.

// below: answered molecules
C[C@]1(c2ccc(Cl)cn2)Oc2cccc(N3CCN(Cc4nc5c(F)cc(C(=O)O)cc5n4CC4(CC#N)CC4)[C@H]4CC[C@@H]43)c2O1 (single isomer, unassigned) [Example 23c]: 6.85
C[C@]1(c2ccc(Cl)cn2)Oc2cccc(N3CCN(Cc4nc5c(Cl)cc(C(=O)O)cc5n4C[C@@H]4CCO4)[C@H]4CC[C@@H]43)c2O1 (single isomer, unassigned) [Example 3a]: 6.66
C[C@]1(c2ccc(Cl)cn2)Oc2cccc(N3CCN(Cc4nc5c(Cl)cc(C(=O)O)cc5n4CC4(CC#N)CC4)[C@H]4CC[C@@H]43)c2O1 (single isomer, unassigned) [Example 26c]: 7.19
CCn1ccnc1Cn1c(CN2CCN(c3cccc4c3O[C@@](C)(c3ccc(Cl)cn3)O4)[C@H]3CC[C@@H]32)nc2c(Cl)cc(C(=O)O)cc21 (single isomer, unassigned) [Example 10a]: 9.05

We now examine a further molecule.
Any idea what pEC50 was measured for C[C@]1(c2ccc(Cl)cc2F)Oc2cccc(N3CCN(Cc4nc5c(F)cc(C(=O)O)cc5n4C[C@@H]4CCO4)[C@H]4CC[C@H]43)c2O1 (single isomer, unassigned) [Example 9b] ?
9.10

====

Biological target: human GLP-1R receptor (Homo sapiens, UniProt P43220, L260F)
Assay: CHOK1 GLP-1R cAMP Assay (HTRF)
Details: CHO-K1 cells stably expressing human GLP-1R (Leu260Phe variant), 20 min at rt
Protocol: A cell line stably expressing the human GLP-1R receptor (NM_002062.5, including the naturally-occurring variant Leu260Phe) in a CHO-K1 (ATCC® CCL-61™) was used for assay. GLP-1 receptor mediated agonist activity was determined in a cell-based assay measuring cyclic adenosine monophosphate (cAMP) levels in cells using Homogeneous Time-Resolved Fluorescence (HTRF) cAMP detection kit (CisBio catalog #62AM4PEC, cAMP Gs Dynamic range kit). […]
Entries and their measured pEC50 follow.
Reminder that pEC50 means the negative base-10 logarithm of the concentration expressed in mol/L.

// below: answered compounds
COc1cc(C(=O)O)cc2c1nc(CN1CCN(c3cccc4c3O[C@@](C)(c3ccc(Cl)cn3)O4)[C@H]3CC[C@@H]31)n2CC1(C#N)CC1 (single isomer, unassigned) [Example 25b]: 8.21
COc1cc(C(=O)O)cc2c1nc(CN1CCN(c3cccc4c3O[C@@](C)(c3ccc(Cl)cn3)O4)[C@H]3CC[C@@H]31)n2C[C@@H]1CCCO1 (single isomer, unassigned) [Example 7a]: 7.57
COc1cc2nc(CN3CCN(c4cccc5c4OC(C)(c4ccc(Cl)cn4)O5)[C@H]4CC[C@@H]43)n(C[C@@H]3CCO3)c2cc1C(=O)O (mixture of isomers): 6.70
C[C@]1(c2ccc(Cl)cc2F)Oc2cccc(N3CCN(Cc4nc5ccc(C(=O)O)cc5n4C[C@@H]4CCO4)[C@H]4CC[C@@H]43)c2O1 (single isomer, unassigned) [Example 21a]: 8.15
C[C@]1(c2ccc(Cl)cn2)Oc2cccc(N3CCN(Cc4nc5c(Cl)cc(C(=O)O)cc5n4C[C@@H]4CCO4)[C@@H]4CC[C@H]43)c2O1 (single isomer, unassigned): 9.05

Hi! What's the reported pEC50 for C[C@]1(c2ccc(Cl)cn2)Oc2cccc(N3CCN(Cc4nc5c(F)cc(C(=O)O)cc5n4C[C@@H]4CCO4)[C@H]4CC[C@H]43)c2O1 (single isomer, unassigned) [Example 1a] on human GLP-1R receptor (Homo sapiens, UniProt P43220, L260F)?
7.18

Hi! What's the reported pEC50 for C[C@]1(c2ccc(Cl)cn2)Oc2cccc(N3CCN(Cc4nc5ccc(C(=O)O)cc5n4C[C@@H]4CCO4)[C@H]4CC[C@@H]43)c2O1 (single isomer, unassigned) [Example 22b] on human GLP-1R receptor (Homo sapiens, UniProt P43220, L260F)?
8.28

Hi! What's the reported pEC50 for COc1cc(C(=O)O)cc2c1nc(CN1CCN(c3cccc4c3OC(C)(c3ccc(Cl)cn3)O4)[C@H]3CC[C@@H]31)n2CCOC1CC1(F)F (mixture of isomers) on human GLP-1R receptor (Homo sapiens, UniProt P43220, L260F)?
8.28

Hi! What's the reported pEC50 for C[C@]1(c2ccc(Cl)cc2F)Oc2cccc(N3CCN(Cc4nc5c(F)cc(C(=O)O)cc5n4C[C@@H]4CCO4)[C@H]4CC[C@H]43)c2O1 (single isomer, unassigned) [Example 9a] on human GLP-1R receptor (Homo sapiens, UniProt P43220, L260F)?
7.24

Hi! What's the reported pEC50 for C[C@]1(c2ccc(Cl)cn2)Oc2cccc(N3CCN(Cc4nc5c(Cl)cc(C(=O)O)cc5n4C[C@@H]4CCO4)[C@H]4CC[C@H]43)c2O1 (single isomer, unassigned) [Example 20c] on human GLP-1R receptor (Homo sapiens, UniProt P43220, L260F)?
9.09

====

Target: human GLP-1R receptor (Homo sapiens, UniProt P43220, L260F)
Assay: CHOK1 GLP-1R cAMP Assay (HTRF)
Conditions: CHO-K1 cells stably expressing human GLP-1R (Leu260Phe variant), 20 min at rt
Experimental: A cell line stably expressing the human GLP-1R receptor (NM_002062.5, including the naturally-occurring variant Leu260Phe) in a CHO-K1 (ATCC® CCL-61™) was used for assay. GLP-1 receptor mediated agonist activity was determined in a cell-based assay measuring cyclic adenosine monophosphate (cAMP) levels in cells using Homogeneous Time-Resolved Fluorescence (HTRF) cAMP detection kit (CisBio catalog #62AM4PEC, cAMP Gs Dynamic range kit). […]
pEC50: −log10 of the molar value.
Respond with Yes for pEC50 values of 8 and above, No for values below.

These recorded examples may help you get a feel for the data.
C[C@]1(c2ccc(Cl)cc2F)Oc2cccc(N3CCN(Cc4nc5c(F)cc(C(=O)O)cc5n4C[C@@H]4CCO4)[C@H]4CC[C@H]43)c2O1 (single isomer, unassigned) [Example 9c]: No
C[C@]1(c2ccc(Cl)cn2)Oc2cccc(N3CCN(Cc4nc5ccc(C(=O)O)cc5n4C[C@@H]4CCO4)[C@H]4CC[C@H]43)c2O1 (single isomer, unassigned) [Example 5b]: No
C[C@]1(c2ccc(Cl)cn2)Oc2cccc(N3CCN(Cc4nc5ccc(C(=O)O)cc5n4C[C@@H]4CCO4)[C@H]4CC[C@H]43)c2O1 (single isomer, unassigned) [Example 5a]: Yes
C[C@]1(c2ccc(Cl)cn2)Oc2cccc(N3CCN(Cc4nc5c(F)cc(C(=O)O)cc5n4CC4(CC#N)CC4)[C@H]4CC[C@@H]43)c2O1 (single isomer, unassigned) [Example 23b]: No

Shift focus to the following entry.
Does the reported pEC50 for CCn1ccnc1Cn1c(CN2CCN(c3cccc4c3O[C@@](C)(c3ccc(Cl)cn3)O4)[C@H]3CC[C@@H]32)nc2c(Cl)cc(C(=O)O)cc21 (single isomer, unassigned) [Example 10b] fall at or above the 8 mark?
No

====

target: human GLP-1R receptor (Homo sapiens, UniProt P43220, L260F); assay: CHOK1 GLP-1R cAMP Assay (HTRF); conditions: CHO-K1 cells stably expressing human GLP-1R (Leu260Phe variant), 20 min at rt
Entries and their measured EC50 follow.
All answers are understood in nM, so give the number only.

// below: answered compounds
C[C@]1(c2ccc(Cl)cc2F)Oc2cccc(N3CCN(Cc4nc5ccc(C(=O)O)cc5n4C[C@@H]4CCO4)[C@H]4CC[C@H]43)c2O1 (single isomer, unassigned) [Example 18a]: 0.98
COc1cc(C(=O)O)cc2c1nc(CN1CCN(c3cccc4c3O[C@@](C)(c3ccc(Cl)cn3)O4)[C@@H]3CC[C@@H]31)n2C[C@@H]1CCCO1 (single isomer, unassigned) [Example 8a]: 6.2
CCn1ccnc1Cn1c(CN2CCN(c3cccc4c3O[C@@](C)(c3ccc(Cl)cn3)O4)[C@H]3CC[C@@H]32)nc2c(Cl)cc(C(=O)O)cc21 (single isomer, unassigned) [Example 10c]: 240
C[C@]1(c2ccc(Cl)cn2)Oc2cccc(N3CCN(Cc4nc5c(Cl)cc(C(=O)O)cc5n4C[C@@H]4CCO4)[C@H]4CC[C@H]43)c2O1 (single isomer, unassigned) [Example 20b]: 140

We now examine a further compound.
Hi! What's the reported EC50 for C[C@]1(c2ccc(Cl)cc2F)Oc2cccc(N3CCN(Cc4nc5ccc(C(=O)O)cc5n4C[C@@H]4CCO4)[C@H]4CC[C@H]43)c2O1 (single isomer, unassigned) [Example 18c] on human GLP-1R receptor (Homo sapiens, UniProt P43220, L260F)?
5.8
